Test: Cytotoxicity against human KB3-1 cells after MTT assay
Type: functional, cell-based
Details: KB 3-1
Entries and their IC50 values follow.
Numeric only. Scale: nM

Field: example entries. Status: answers known.
smiles string	measured number
CCN(CC#N)CCn1c(=O)c2cc(OC)c(OC)cc2c2cnc3cc4c(cc3c21)OCO4	4
COc1cc2c(=O)n(CCN(CC#N)C(C)C)c3c4cc5c(cc4ncc3c2cc1OC)OCO5	6

With those in mind, consider the next compound.
Query: Entry under review: CCN(CCn1c(=O)c2cc(OC)c(OC)cc2c2cnc3cc4c(cc3c21)OCO4)CC(F)(F)F . Reported IC50?
Response: 650
